assay: method code SF-HPLC, from DOI: 10.1016/s0021-9673(01)84554-4
endpointName: logP

[A] CC1CC2C3CCC4=CC(=O)C=CC4(C)C3(F)C(O)CC2(C)C1(O)C(=O)NCCCCCCCCCN (configuration not stated)
[B] CC1CC2C3CCC4=CC(=O)C=CC4(C)C3(F)C(O)CC2(C)C1(O)C(=O)NCCCCCC(=O)O (configuration not stated)
[C] CC1CC2C3CCC4=CC(=O)C=CC4(C)C3(F)C(O)CC2(C)C1(O)C(=O)NCC(=O)O (configuration not stated)
Q) Arrange the above in rising order of logP. Order the labels as requested and list them.
A) C, B, A
(C: 1.2, B: 2.29, A: 4.13)

[I] CC1CC2C3CCC4=CC(=O)C=CC4(C)C3(F)C(O)CC2(C)C1(O)C(=O)NCCCCCCCCN (configuration not stated)
[II] CC1CC2C3CCC4=CC(=O)C=CC4(C)C3(F)C(O)CC2(C)C1(O)C(=O)NCCCCN (configuration not stated)
Q) Which is greater in logP, the first item I or the second item II ? Please respond with the label that marks your chosen entry.
A) I
(I: 3.72, II: 2.3)

[I] CC1CC2C3CCC4=CC(=O)C=CC4(C)C3(F)C(O)CC2(C)C1(O)C(=O)NCCCCCCN (configuration not stated)
[II] CCCNCCNC(=O)C1(O)C(C)CC2C3CCC4=CC(=O)C=CC4(C)C3(F)C(O)CC21C (configuration not stated)
Q) Which is greater in logP, the first item I or the second item II ? Please respond with the label that marks your chosen entry.
A) II
